Test system: HepG2
Experiment: GSK_TCMDC: Percent inhibition of human HepG2 cell line. Test compounds present at 10uM.
Assay type: functional
ENDPOINT: Inhibition (%)
The reply should contain only the number, in %.

compound=FC(F)(F)c1cccc2c(NN=Cc3ccccc3)ccnc12 recorded_measurement=10
compound=COc1cc(F)c2ncc(Cl)c(CCN3CCC(NCc4cc5c(cn4)OCCO5)CC3)c2c1.Cl recorded_measurement=2

What the record says about Cc1cc(NC(=O)Nc2ccc(N(C)C)cc2)c2cc(Cl)ccc2n1.Cl : Inhibition is 0

What the record says about Cc1cc(NC(=O)c2ccco2)ccc1OC1CCN(Cc2ccc(C#N)cc2)CC1.O=C(O)C(F)(F)F : Inhibition is 2

What the record says about COc1ccc(-c2nc3cc4ccccc4nc3[nH]2)c(OCC(O)CNC(C)C)c1.Cl (stereo not drawn) : Inhibition is 19

What the record says about COc1ccc2cc(C=NNc3nc4ccccc4[nH]3)c(Cl)nc2c1 : Inhibition is 2

What the record says about Cc1cccc2nc(-c3ccc(-c4ccc(CN5CCC(CCN6CCCCC6)CC5)cc4)cc3)[nH]c12.O=C(O)C(F)(F)F : Inhibition is 99

What the record says about Clc1ccc(-c2cc(-c3csc(Nc4ccncc4)n3)on2)cc1 : Inhibition is 1

====

Tested on: Plasmodium falciparum
Experiment: GSK_TCMDC: Inhibition of Plasmodium falciparum 3D7 in whole red blood cells, using parasite LDH activity as an index of growth. Test compounds present at 2uM
Assay type: functional
ENDPOINT: Inhibition (%)
The reply should contain only the number, in %.

Use these answered entries as a reference point.
molecule=O=C(Nc1cccc(CN2CCCN(Cc3cccc(O)c3)CC2)c1)c1ccc(Cl)c(Cl)c1.O=C(O)C(F)(F)F endpoint=Inhibition unit_of_measurement=% recorded_measurement=100
molecule=Cc1ccc(Nc2nccc(Nc3ccc4c(c3)nc(Nc3cc(C(C)(C)C)on3)n4C)n2)cc1S(C)(=O)=O endpoint=Inhibition unit_of_measurement=% recorded_measurement=100
molecule=CN1CCN(CC(=O)Nc2ccc(-c3cccc(-c4nc5cc(C(F)(F)F)ccc5[nH]4)c3)cc2)CC1 endpoint=Inhibition unit_of_measurement=% recorded_measurement=100
molecule="CCCCC([C@@H](Cc1ccc2ccccc2c1)C(=O)N[C@H](C(=O)NC)C(C)(C)C)N(O)C=O (some centres undefined)" endpoint=Inhibition unit_of_measurement=% recorded_measurement=100
molecule="Cc1ccnc(NC(c2cccc(OCc3ccccc3)c2)c2ccc3cccnc3c2O)c1 (centres undefined)" endpoint=Inhibition unit_of_measurement=% recorded_measurement=95
molecule=COc1ccc(CNCc2ccccc2)cc1-c1ccc(S(=O)(=O)NCCN2CCCC2)c(F)c1.O=C(O)C(F)(F)F endpoint=Inhibition unit_of_measurement=% recorded_measurement=87

What the record says about CCOc1ccccc1C1C(C(=O)C(C)(C)C)N2c3ccc(Br)cc3C=CC2C12C(=O)c1ccccc1C2=O (centres undefined) : Inhibition is 95

What the record says about CCNc1cc(C(=O)N[C@@H](Cc2ccccc2)[C@H](O)CNC2(Cc3cccc(Cl)c3)CCC2)cc(N2CCCCS2(=O)=O)c1.Cl : Inhibition is 95

What the record says about CC(C)C1=CC(=NOS(=O)(=O)c2ccccc2)C=C(C(C)C)C1=O : Inhibition is 92

====

Test system: HepG2
Assay: GSK_TCMDC: Percent inhibition of human HepG2 cell line. Test compounds present at 10uM.
Format: functional
ENDPOINT: Inhibition (%)
The reply should contain only the number, in %.

molecule=O=[N+]([O-])c1cccc(NC(=S)N2CCCN(Cc3ccc(F)cc3F)CC2)c1 endpoint=Inhibition unit_of_measurement=% recorded_measurement=5
molecule=Cc1cc(=NN=Cc2ccc(Cl)cc2)c2ccccc2[nH]1 endpoint=Inhibition unit_of_measurement=% recorded_measurement=5

What the record says about O=C(c1ccc(Br)o1)N1N=C(c2cccs2)CC1c1ccc(Br)cc1 (stereo not drawn) : Inhibition is 5

====

Tested on: Plasmodium falciparum
Test: GSK_TCMDC: Inhibition of Plasmodium falciparum Dd2 in whole red blood cells, using parasite LDH activity as an index of growth. Test compounds present at 2uM
Assay type: functional
ENDPOINT: Inhibition (%)
The reply should contain only the number, in %.

compound=CC(=O)N(C)c1cccc(C(=O)Nc2cccc(-c3cccc(-c4nc5cccc(C)c5[nH]4)c3)c2)c1 endpoint=Inhibition recorded_measurement=41
compound=CCN(CC)C(=O)c1cnc(-c2ccccc2)nc1Oc1cccc(Cl)c1 endpoint=Inhibition recorded_measurement=40

The record that follows has no Inhibition shown yet.
Plasmodium falciparum assay, compound Cc1ccc(NC(=O)C(C)Sc2nnc(-c3ccccc3Br)[nH]2)cc1 (stereo not drawn) , recorded Inhibition = 90

====

Tested on: HepG2
Assay: GSK_TCMDC: Percent inhibition of human HepG2 cell line. Test compounds present at 10uM.
Format: functional
ENDPOINT: Inhibition (%)
The reply should contain only the number, in %.

Use these answered entries as a reference point.
compound_structure_string=Cc1cc(C(=O)NCc2ccc(-c3c(C)noc3C)cc2)n(-c2ccc(Cl)cc2)n1 endpoint=Inhibition recorded_measurement=0
compound_structure_string=O=C(O)C(F)(F)F.O=C1CCCN1CCCNCc1ccc(-c2cccc(-c3nc4cc(F)ccc4[nH]3)c2)cc1 endpoint=Inhibition recorded_measurement=12
compound_structure_string=O=C(Nc1ccccc1)N(Cc1ccccc1-c1cccc(CNCCc2ccccc2)c1)C1CCN(Cc2ccccc2)CC1.O=C(O)C(F)(F)F endpoint=Inhibition recorded_measurement=95

The record that follows has no Inhibition shown yet.
What the record says about O=C1NC(=S)N/C1=C/C=C/c1ccc([N+](=O)[O-])o1 : Inhibition is 7

====

Let's look at some molecules and their measured Inhibition.
System: Plasmodium falciparum
Test: GSK_TCMDC: Inhibition of Plasmodium falciparum 3D7 in whole red blood cells, using parasite LDH activity as an index of growth. Test compounds present at 2uM
Type: functional

Use these answered entries as a reference point.
compound_structure_string=Cc1ccc(C(=O)N2CCc3cc4nccc(N5CCN6CCC[C@H]6C5)c4cc32)cc1 endpoint=Inhibition recorded_measurement=95%
compound_structure_string=O=C(O)/C=C\C(=O)O.c1cc(CN2CCCCC2)cc(OCCCNc2ccnc3ccccc23)c1 endpoint=Inhibition recorded_measurement=100%

The record that follows has no Inhibition shown yet.
What the record says about COC(=O)c1ccc2nc(-c3cc(OC)c(O)c(C(=O)NC4CCN(Cc5ccccc5)CC4)c3)[nH]c2c1 : Inhibition is 85%

====

System: HepG2
Experiment: GSK_TCMDC: Percent inhibition of human HepG2 cell line. Test compounds present at 10uM.
Assay type: functional
ENDPOINT: Inhibition

Use these answered entries as a reference point.
compound="CC(C)c1ncc(-c2ccncc2)c(C2CCC(CNC(=O)c3cccnc3)CC2)n1 (stereo not given)" experimental_system=HepG2 recorded_measurement=0%
compound=CC(C)C[C@H](Nc1ccnc(NCC2CCCCC2)n1)C(=O)Nc1ccccc1.O=C(O)C(F)(F)F experimental_system=HepG2 recorded_measurement=6%
compound="COC1CCC(C(=O)Nc2ccc(-c3cccc(-c4nc5cccc(C)c5[nH]4)c3)cc2)CC1 (stereo not given)" experimental_system=HepG2 recorded_measurement=89%
compound="CC1CCCCN1S(=O)(=O)c1ccc(NC(=O)c2cc(-c3ccccc3O)n[nH]2)cc1 (stereo not given)" experimental_system=HepG2 recorded_measurement=26%
compound=CCCN1CCCN(Cc2cccc(NC(=O)c3ccc(-c4ccccc4)cc3)c2)CC1.O=C(O)C(F)(F)F experimental_system=HepG2 recorded_measurement=34%
compound=O=C(O)C(F)(F)F.c1cc(CNCCN2CCNCC2)cc(-c2cccc(-c3nc4ccccc4[nH]3)c2)c1 experimental_system=HepG2 recorded_measurement=11%

What the record says about CN1CCN(c2ccc(Nc3nccc(-c4c(-c5cccc(NC(=O)c6c(F)cccc6F)c5)nn5ccccc45)n3)cc2)CC1 : Inhibition is 86%

What the record says about O=C1CC(C(=O)Nc2cccc(-c3cccc(-c4nc5ccccc5[nH]4)c3)c2)c2ccccc2N1 (stereo not given) : Inhibition is 0%

What the record says about O=C(c1ccc(-c2ccc(-c3nc4cc(C(F)(F)F)ccc4[nH]3)s2)cc1)N1CCN(CCc2ccccc2)CC1 : Inhibition is 23%

What the record says about CCOc1cc(C(=O)NCCN(C(C)C)C(C)C)ccc1-c1nc2cc(Cl)ccc2[nH]1 : Inhibition is 4%

What the record says about O=C(COc1cccc([N+](=O)[O-])c1)Nc1ccc(-c2nc3ccccc3[nH]2)cc1 : Inhibition is 12%

What the record says about O=C(Nc1cccc(-c2cccc(-c3nc4cc(F)ccc4[nH]3)c2)c1)Nc1ccc(F)c(F)c1F : Inhibition is 83%

What the record says about COc1ccc(NC(=O)[C@H](CC(C)C)Nc2cc(C)nc(NCCc3ccc(F)cc3)n2)cc1.O=C(O)C(F)(F)F : Inhibition is 1%

What the record says about CC(C)c1nc2c(N)nc(N)nc2nc1N : Inhibition is 64%

What the record says about O=C(/C=C/c1ccc(Cl)c(Cl)c1)NCCCCN1CCCN(C(=O)Nc2cc(Cl)cc(Cl)c2)CC1 : Inhibition is 21%

All values here come from ChEMBL document CHEMBL1157539.
